molecular target: IRAK4 (Homo sapiens, UniProt Q9NWZ3); assay: IRAK4 degradation in OCI-LY10 (MSD, Meso Scale Discovery); assay type: cell-based; parameters: endogenous in cells; host or cells: OCI-LY10; conditions: OCI-LY10 cells, 24 h
reportedProperty: DC50

Past entries and their recorded results:
// COc1cc2nn([C@H]3CC[C@H](CNCCCCCCc4cncc(N5CCC[C@H](C(=O)Nc6ccc(=O)n(CC(=O)O)c6)C5)c4)CC3)cc2cc1NC(=O)c1cccc(C(F)(F)F)n1 : DC50 value = > 10 µM

// CC(C)(O)c1cc2nn([C@H]3CC[C@H](CNCCCCCCCCCn4ccc5c(C(=O)Nc6ccc(=O)n(CC(=O)O)c6)cccc54)CC3)cc2cc1NC(=O)c1cccc(C(F)(F)F)n1 : DC50 value = > 10 µM

// CCOC(=O)Cn1cc(NC(=O)c2cccc3c2ccn3CCCNC[C@H]2CC[C@H](n3cc4cc(NC(=O)c5cccc(C(F)(F)F)n5)c(C(C)(C)O)cc4n3)CC2)ccc1=O : DC50 value = > 10 µM

// CCOC(=O)Cn1cc(NC(=O)c2cccc(-c3cncc(CCCCCCCCCNC[C@H]4CC[C@H](n5cc6cc(NC(=O)c7cccc(C(F)(F)F)n7)c(C(C)(C)O)cc6n5)CC4)c3)c2)ccc1=O : DC50 value = 1 to 10 µM

# next compound below
// CCOC(=O)Cn1cc(NC(=O)c2cc(CCCCCCNC[C@H]3CC[C@H](n4cc5cc(NC(=O)c6cccc(C(F)(F)F)n6)c(C(C)(C)O)cc5n4)CC3)cc(-c3cccnc3)c2)ccc1=O : DC50 value = > 10 µM

----------
Molecular target: IRAK4 (Homo sapiens)
Sequence (Q9NWZ3 1-460): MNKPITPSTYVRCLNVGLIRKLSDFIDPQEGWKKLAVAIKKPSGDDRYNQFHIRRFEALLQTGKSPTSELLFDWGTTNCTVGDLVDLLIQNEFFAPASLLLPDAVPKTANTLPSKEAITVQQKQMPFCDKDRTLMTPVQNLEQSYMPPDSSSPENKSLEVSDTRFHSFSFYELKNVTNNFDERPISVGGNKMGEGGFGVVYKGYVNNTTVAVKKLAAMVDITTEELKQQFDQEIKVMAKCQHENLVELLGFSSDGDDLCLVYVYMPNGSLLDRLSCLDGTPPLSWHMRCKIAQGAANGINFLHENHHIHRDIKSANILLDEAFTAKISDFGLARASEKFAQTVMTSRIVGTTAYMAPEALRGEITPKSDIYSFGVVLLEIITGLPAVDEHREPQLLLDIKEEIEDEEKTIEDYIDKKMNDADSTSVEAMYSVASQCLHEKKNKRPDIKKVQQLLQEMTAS
Assay: hPBMC IRAK4 degradation flow assay (monocytes)
Assay type: cell-based
Parameters: endogenous in cells; host or cells: human PBMCs (monocytes, CD14 positive gate)
Conditions: CD14 positive monocytes, 20 h, read-out: hPBMC monocyte DC50 at 20 h
Listing of entries alongside the reported DC50.

// CCOC(=O)Cn1cc(NC(=O)[C@H]2CCCN(c3cncc(NCCOCCOCCNC[C@H]4CC[C@H](n5cc6cc(NC(=O)c7cccc(C(F)(F)F)n7)c(OC)cc6n5)CC4)c3)C2)ccc1=O : DC50 value = 1 to 10 µM

Next:
// CCOC(=O)Cn1cc(NC(=O)C2CCCN(c3cncc(N4CCC(CN(C)C[C@H]5CC[C@H](n6cc7cc(NC(=O)c8cccc(C(F)(F)F)n8)c(OC)cc7n6)CC5)CC4)c3)C2)ccc1=O (stereo partly drawn) : DC50 value = > 10 µM

// CCOC(=O)Cn1cc(NC(=O)[C@H]2CCCN(c3cncc(OCCNC[C@H]4CC[C@H](n5cc(NC(=O)c6cnn7ccc(N8C[C@H]9C[C@@H]8CO9)nc67)c(C(F)F)n5)CC4)c3)C2)ccc1=O : DC50 value = 1 to 10 µM

// COc1cc2nn([C@H]3CC[C@H](CNCCOCCOCCOCCOCCOc4cncc(N5CCC[C@H](C(=O)Nc6ccc(=O)n(CC(=O)O)c6)C5)c4)CC3)cc2cc1NC(=O)c1cccc(C(F)(F)F)n1 : DC50 value = 1 to 10 µM

// CCOC(=O)Cn1cc(NC(=O)c2cccc3c2ccn3CCCNC[C@H]2CC[C@H](n3cc4cc(NC(=O)c5cccc(C(F)(F)F)n5)c(C(C)(C)O)cc4n3)CC2)ccc1=O : DC50 value = > 10 µM

// O=C(O)Cn1cc(NC(=O)c2cc(CCCCCCCCCNC[C@H]3CC[C@H](n4cc(NC(=O)c5cnn6ccc(N7C[C@H]8C[C@@H]7CO8)nc56)c(C(F)F)n4)CC3)cc(-c3cccnc3)c2)ccc1=O : DC50 value = > 10 µM

// CCOC(=O)Cn1cc(NC(=O)[C@H]2CCCN(c3cncc(CCCCNC[C@H]4CC[C@H](n5cc6cc(NC(=O)c7cccc(C(F)(F)F)n7)c(OC)cc6n5)CC4)c3)C2)ccc1=O : DC50 value = > 10 µM

// O=C(O)Cn1cc(NC(=O)[C@H]2CCCN(c3cncc(OCCOCCOCCOCCOCCNC[C@H]4CC[C@H](n5cc(NC(=O)c6cnn7ccc(N8C[C@H]9C[C@@H]8CO9)nc67)c(C(F)F)n5)CC4)c3)C2)ccc1=O : DC50 value = 1 to 10 µM

// CCOC(=O)Cn1cc(NC(=O)[C@H]2CCCN(c3cncc(N4CCC(CN(C)C[C@H]5CC[C@H](n6cc(NC(=O)c7cnn8ccc(N9C[C@H]%10C[C@@H]9CO%10)nc78)c(C(F)F)n6)CC5)CC4)c3)C2)ccc1=O : DC50 value = > 10 µM

// COc1cc2nn([C@H]3CC[C@H](CNCCOCCOCCOCCOCCNc4cncc(N5CCC[C@H](C(=O)Nc6ccc(=O)n(CC(=O)O)c6)C5)c4)CC3)cc2cc1NC(=O)c1cccc(C(F)(F)F)n1 : DC50 value = > 10 µM

// CCOC(=O)Cn1cc(NC(=O)c2cc(CCCCCCNC[C@H]3CC[C@H](n4cc5cc(NC(=O)c6cccc(C(F)(F)F)n6)c(C(C)(C)O)cc5n4)CC3)cc(-c3cccnc3)c2)ccc1=O : DC50 value = > 10 µM

// O=C(O)Cn1cc(NC(=O)c2cc(CCCNC[C@H]3CC[C@H](n4cc(NC(=O)c5cnn6ccc(N7C[C@H]8C[C@@H]7CO8)nc56)c(C(F)F)n4)CC3)cc(-c3cccnc3)c2)ccc1=O : DC50 value = > 10 µM

Data origin: patent US20250205342A1
